# System: A498
# ASSAY NOTES: NCI tumour cell line growth inhibition, 48 h
The source made the active and inactive calls. Rule as the data show it: active = GI50 up to about 1.1 µM and inactive = higher.

{"MOLECULE": "O=C(NCC(O)COc1ccccc1)c1ccccc1O (stereo unspecified)", "TARGET OR SYSTEM": "A498", "GI50": "> 100 µM (inactive)"}
{"MOLECULE": "N#Cc1ccc2oc3ccc(C#N)cc3c(=O)c2c1", "TARGET OR SYSTEM": "A498", "GI50": "14.8 µM (inactive)"}
{"MOLECULE": "COc1nc(OC)nc(Sc2ccc(Sc3ccc(Sc4nc(OC)nc(OC)n4)cc3)cc2)n1", "TARGET OR SYSTEM": "A498", "GI50": "> 100 µM (inactive)"}
{"MOLECULE": "CC(=O)c1ccc(Nc2nc3ccccc3c3occc23)cc1", "TARGET OR SYSTEM": "A498", "GI50": "2.99 µM (inactive)"}
{"MOLECULE": "COc1ccc(C(C)NNC(=O)c2ccncc2)cc1OC (stereo unspecified)", "TARGET OR SYSTEM": "A498", "GI50": "> 100 µM (inactive)"}
{"MOLECULE": "COc1cc(Cc2ccc3c(c2C#N)N(C)c2ccccc2S3)cc(OC)c1OC", "TARGET OR SYSTEM": "A498", "GI50": "21.8 µM (inactive)"}
{"MOLECULE": "OC1CN(OC/C=C/c2ccccc2)CC(O)C1O (stereo unspecified)", "TARGET OR SYSTEM": "A498", "GI50": "> 100 µM (inactive)"}
{"MOLECULE": "O=C1c2ccccc2C(=O)c2c1nc1ccccc1c2-c1cncc(-c2c3c(nc4ccccc24)C(=O)c2ccccc2C3=O)c1", "TARGET OR SYSTEM": "A498", "GI50": "9.18 µM (inactive)"}
{"MOLECULE": "CC(=O)ON1C(=O)c2cccc3cccc(c23)C1=O", "TARGET OR SYSTEM": "A498", "GI50": "25.8 µM (inactive)"}
{"MOLECULE": "O=P(O)(O)CN1CCNCCN(CP(=O)(O)O)CC1", "TARGET OR SYSTEM": "A498", "GI50": "33.7 µM (inactive)"}
{"MOLECULE": "Cc1cccc(C2=C/C(=C(\\SS/C(C(=O)c3ccc(OCC(=O)O)c(Cl)c3Cl)=C3\\C=C(c4cccc(C)c4)SS3)C(=O)c3ccc(OCC(=O)O)c(Cl)c3Cl)SS2)c1", "TARGET OR SYSTEM": "A498", "GI50": "24.4 µM (inactive)"}
{"MOLECULE": "CCOC(=O)C1=C(Nc2cccc(OC)c2)OCC1=O", "TARGET OR SYSTEM": "A498", "GI50": "27.7 µM (inactive)"}
{"MOLECULE": "O=C(Nc1ccc2nc(-c3ccccc3)cn2c1)Oc1ccccc1", "TARGET OR SYSTEM": "A498", "GI50": "71.3 µM (inactive)"}
{"MOLECULE": "NCCOc1cccc(C2(N3CCCCC3)CCCCC2)c1", "TARGET OR SYSTEM": "A498", "GI50": "30 µM (inactive)"}
{"MOLECULE": "COc1cc(-c2cc(=O)c3ccccc3o2)ccc1N", "TARGET OR SYSTEM": "A498", "GI50": "27.2 µM (inactive)"}
{"MOLECULE": "NC(Cc1ccccc1)C(=O)O (stereo unspecified)", "TARGET OR SYSTEM": "A498", "GI50": "> 100 µM (inactive)"}

###

# Tested on: SW-620
# ASSAY NOTES: NCI tumour cell line growth inhibition, 48 h
Activity calls are given as the source filed them. Cut-off read from the data, not from the text of the source: active = GI50 up to about 1.1 µM and inactive = higher.
Classes used: active, inactive

{"MOLECULE": "NC(=O)Oc1ccccc1", "TARGET OR SYSTEM": "SW-620", "CLASS ASSIGNMENT": "inactive"}
{"MOLECULE": "Cc1cc2c(cc1C)C(=O)C1(C2)Cc2c(ccc(C)c2C)C1=O (stereo not drawn)", "TARGET OR SYSTEM": "SW-620", "CLASS ASSIGNMENT": "inactive"}
{"MOLECULE": "O=C(c1ccccc1F)c1c(NCc2ccccc2)c(=O)c1=O", "TARGET OR SYSTEM": "SW-620", "CLASS ASSIGNMENT": "inactive"}
{"MOLECULE": "Cc1cc(O)nc(NN2C(Cl)C(=O)C2c2ccc(O)cc2)n1 (stereo not drawn)", "TARGET OR SYSTEM": "SW-620", "CLASS ASSIGNMENT": "inactive"}
{"MOLECULE": "CCN(CC)CC(C)(C)C(=O)/C=C/c1ccc(/C=C/C(=O)C(C)(C)CN(CC)CC)cc1", "TARGET OR SYSTEM": "SW-620", "CLASS ASSIGNMENT": "active"}
{"MOLECULE": "NC(Cc1ccccc1)C(=O)O (stereo not drawn)", "TARGET OR SYSTEM": "SW-620", "CLASS ASSIGNMENT": "inactive"}
{"MOLECULE": "COc1cc2c3c4[n+](cc2c(OC)c1OC)CCC4CCC3 (stereo not drawn)", "TARGET OR SYSTEM": "SW-620", "CLASS ASSIGNMENT": "inactive"}
{"MOLECULE": "C[C@@H](CO)OCOCc1ccccc1", "TARGET OR SYSTEM": "SW-620", "CLASS ASSIGNMENT": "inactive"}

###

# Tested on: NCI-H522
# ASSAY NOTES: NCI tumour cell line growth inhibition, 48 h
Activity calls are given as the source filed them. Rule as the data show it: active = GI50 up to about 1.1 µM and inactive = higher.
Classes used: active, inactive

{"COMPOUND": "COc1ccc(C2Oc3ccc(Cl)cc3C=C2[N+](=O)[O-])cc1OC (stereo not drawn)", "CLASS ASSIGNMENT": "active"}
{"COMPOUND": "COC(=O)C1=C(C(=O)OC)N(c2ccc(OC)cc2[N+](=O)[O-])C(c2ccc(C)cc2)=CC1c1ccc(OC)cc1OC (stereo not drawn)", "CLASS ASSIGNMENT": "inactive"}
{"COMPOUND": "CC(=O)/C(=N\\O)C(=O)NCc1ccccc1", "CLASS ASSIGNMENT": "inactive"}

###

Each item that follows carries a reported GI50.
# System: MDA-MB-435
# ASSAY NOTES: NCI tumour cell line growth inhibition, 48 h
Active and inactive are the calls of the source. Rule as the data show it: active = GI50 up to about 1.1 µM and inactive = higher.
OBSERVABLE: GI50

{"MOLECULE": "CC(=O)O[C@@]12CO[C@@H]1C[C@H](O)[C@@]1(C)C(=O)[C@H](O)C3=C(C)[C@@H](OC(=O)[C@H](O)[C@@H](NC(=O)OC(C)(C)C)c4ccccc4)C[C@@](O)([C@@H](OC(=O)c4ccccc4)[C@H]21)C3(C)C [DOCETAXEL]", "MEASURED RESULT": "0.000149 µM (active)"}
{"MOLECULE": "CO[C@H]1O[C@@H]2OC3(C)CCC4[C@H](C)CCC([C@H]1C)[C@]42OO3 (stereo partly drawn)", "MEASURED RESULT": "> 100 µM (inactive)"}
{"MOLECULE": "OCc1c2c(cc3c1CC1(C3)Cc3cc4c(c(CO)c3C1)CCC4)CCC2", "MEASURED RESULT": "20.6 µM (inactive)"}
{"MOLECULE": "O=C(O)Cn1nnc2c(=O)[nH][nH]c(=O)c21", "MEASURED RESULT": "> 100 µM (inactive)"}
{"MOLECULE": "O=C(c1ccccc1F)c1c(NCc2ccccc2)c(=O)c1=O", "MEASURED RESULT": "> 100 µM (inactive)"}
{"MOLECULE": "CSc1nc(N)c2c(-c3ccccc3)c3c(nc2n1)CCCC3", "MEASURED RESULT": "> 100 µM (inactive)"}
{"MOLECULE": "C=C(C)[C@@H](C(=O)OC)N1C(=O)c2ccccc2C1=O", "MEASURED RESULT": "> 100 µM (inactive)"}
{"MOLECULE": "C=CC(C1=CC(=O)C(OC)=CC1=O)c1ccccc1 (stereo not drawn) [4-METHOXYDALBERGIONE]", "MEASURED RESULT": "13.8 µM (inactive)"}
{"MOLECULE": "CC(O)c1cc2c(s1)C(=O)c1scc(C(C)O)c1C2=O (stereo not drawn)", "MEASURED RESULT": "0.175 µM (active)"}
{"MOLECULE": "CN(CCCCN1CCCC1)CCCCN(C)C(=O)Cc1ccc(Cl)c(Cl)c1", "MEASURED RESULT": "2.26 µM (inactive)"}
{"MOLECULE": "O=C(NCC(O)COc1ccccc1)c1ccccc1O (stereo not drawn)", "MEASURED RESULT": "> 100 µM (inactive)"}
{"MOLECULE": "OCC1CCCC(n2cnc3c(S)ncnc32)O1 (stereo not drawn)", "MEASURED RESULT": "> 100 µM (inactive)"}
{"MOLECULE": "CCN(C(=S)N[C@@H](Cc1ccccc1)C(=O)N[C@@H](CC(C)C)C(=O)OC)c1ccccc1", "MEASURED RESULT": "> 100 µM (inactive)"}
